Biological target: Drak2 (Homo sapiens, UniProt O94768)
Sequence (O94768 1-372): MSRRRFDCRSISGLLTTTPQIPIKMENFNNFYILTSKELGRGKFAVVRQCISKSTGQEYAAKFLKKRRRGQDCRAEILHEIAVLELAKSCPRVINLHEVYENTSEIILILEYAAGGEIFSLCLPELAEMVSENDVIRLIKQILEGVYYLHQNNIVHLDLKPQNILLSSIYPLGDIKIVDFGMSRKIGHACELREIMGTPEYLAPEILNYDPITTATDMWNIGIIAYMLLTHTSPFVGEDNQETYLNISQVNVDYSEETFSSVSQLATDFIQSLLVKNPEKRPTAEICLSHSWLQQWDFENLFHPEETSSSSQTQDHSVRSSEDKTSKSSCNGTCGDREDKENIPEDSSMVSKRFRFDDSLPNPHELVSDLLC
Give IC50 for every item shown.

# input Query (compound): CCS(=O)(=O)c1ccc(-c2cncc(-c3cc(NC(=O)CC4CCC4)cs3)n2)cc1OC ; field requested: IC50
# output 101 to 1000 nM

# input Query (compound): COc1cc(-c2cncc(-c3cc(NC(=O)CC4CC(F)(F)C4)cs3)n2)ccc1C(=O)N(C)C1CCN(C)CC1 ; field requested: IC50
# output 11 to 100 nM

# input Query (compound): CCCCC(=O)Nc1csc(-c2ccnc(-c3ccc(C(=O)N(C)C4CCN(C)CC4)c(OC)c3)n2)c1 ; field requested: IC50
# output 1000 to 10000 nM

# input Query (compound): CCC(=O)Nc1csc(-c2cncc(-c3ccc(C(=O)Nc4nnn[nH]4)c(OC)c3)n2)c1 ; field requested: IC50
# output 101 to 1000 nM

# input Query (compound): COc1ccc(-c2cncc(NC3CCC(NC(=O)C4CCC4)CC3)n2)cc1OC (centres unmarked) [Example D2] ; field requested: IC50
# output > 10000 nM

# input Query (compound): COc1cc(-c2cncc(-c3cc(NC(=O)Cc4ccco4)cs3)n2)ccc1C(=O)Nc1nnn[nH]1 ; field requested: IC50
# output 101 to 1000 nM

# input Query (compound): COc1cc(-c2cncc(-c3cc(NC(=O)CC4CCC4)cs3)n2)ccc1S(=O)(=O)N1CCOCC1 ; field requested: IC50
# output 11 to 100 nM

# input Query (compound): COc1cc(-c2cncc(-c3cc(NC(=O)CC4CC4)cs3)n2)ccc1S(=O)(=O)N(C)CCN(C)C ; field requested: IC50
# output 11 to 100 nM

====

Give IC50 for every item shown.

# input Which measured IC50 belongs to CCCCC(=O)Nc1csc(-c2cncc(-c3cc(OC)ccc3OC)n2)c1 [Example A13] , tested on Drak2 (Homo sapiens)?
# output 101 to 1000 nM

# input Which measured IC50 belongs to CCCCC(=O)Nc1csc(-c2cncc(-c3ccc(C(=O)Nc4nccs4)c(OC)c3)n2)c1 [Example B8] , tested on Drak2 (Homo sapiens)?
# output 1000 to 10000 nM

# input Which measured IC50 belongs to COc1cc(-c2cncc(-c3cc(NC(=O)CC4CCC4)cs3)n2)ccc1OCCN1CCn2ncnc2C1 [Example 175] , tested on Drak2 (Homo sapiens)?
# output 11 to 100 nM

# input Which measured IC50 belongs to CCCCC(=O)Nc1csc(-c2cncc(-c3ccc(F)c(O)c3)n2)c1 [Example A41] , tested on Drak2 (Homo sapiens)?
# output 101 to 1000 nM

# input Which measured IC50 belongs to COc1cc(-c2cncc(-c3cc(NC(=O)CC4CC4)cs3)n2)ccc1C(=O)N(C)C1CCN(C)CC1 [Example B60] , tested on Drak2 (Homo sapiens)?
# output 11 to 100 nM

# input Which measured IC50 belongs to COc1cc(-c2cncc(-c3cc(NC(=O)CC4CCC4)cs3)n2)ccc1C(=O)Nc1nnco1 [Example B62] , tested on Drak2 (Homo sapiens)?
# output 11 to 100 nM

# input Which measured IC50 belongs to COc1cc(-c2cncc(-c3cc(NC(=O)CC4CCCC4)cs3)n2)ccc1C(=O)N(C)CCN(C)C [Example B58] , tested on Drak2 (Homo sapiens)?
# output 11 to 100 nM

# input Which measured IC50 belongs to CCCCCCc1csc(-c2cncc(-c3ccc(OC)c(OC)c3)n2)c1 [Example 188] , tested on Drak2 (Homo sapiens)?
# output 1000 to 10000 nM

====

biological target: Drak2 (Homo sapiens, UniProt O94768); experiment: Drak2 activity test, ADP-Glo kinase assay (Promega); type: biochemical; conditions: inhibition of Drak2 kinase activity, 2 h room temperature, activity range classes, read-out: IC50_Drak2
Measure: IC50

# input Query (molecule): CCCCC(=O)Nc1csc(-c2cncc(-c3ccc(C(=O)N(C)C4CCN(C(C)C)CC4)c(OC)c3)n2)c1 [Example B68] ; field requested: IC50
# output < 10 nM

# input Query (molecule): COc1cc(-c2cncc(-c3cc(NC(=O)CC4CCC4)cs3)n2)ccc1OCC(=O)N1CCN(C)CC1 [Example 176] ; field requested: IC50
# output < 10 nM

# input Query (molecule): COc1cc(-c2cncc(-c3cc(NC(=O)CC4CCC4)cs3)n2)ccc1OCC(=O)N1CCOCC1 [Example 191] ; field requested: IC50
# output < 10 nM

# input Query (molecule): COc1cc(-c2cncc(-c3cc(NC(=O)CC4CC(F)C4)cs3)n2)ccc1C(=O)N(C)C1CCN(C)CC1 (stereo not shown) [Example B90] ; field requested: IC50
# output < 10 nM

# input Query (molecule): CCCCCCC(=O)Nc1csc(-c2cncc(-c3ccc(C(=O)Nc4nnn[nH]4)c(OC)c3)n2)c1 [Example B17] ; field requested: IC50
# output 1000 to 10000 nM

# input Query (molecule): CCCCC(=O)Nc1cc(-c2cncc(-c3ccc(S(C)(=O)=O)c(OC)c3)n2)sc1C [Example A45] ; field requested: IC50
# output 1000 to 10000 nM

# input Query (molecule): CCCC(=O)Nc1csc(-c2cncc(-c3ccc(C(=O)Nc4nnn[nH]4)c(OC)c3)n2)c1 [Example B9] ; field requested: IC50
# output 101 to 1000 nM

====

Give IC50 for every item shown.

# input Which measured IC50 belongs to COc1cc(-c2cncc(-c3cc(NC(=O)CC4CCC4)cs3)n2)ccc1OCCN1CCSCC1 , tested on Drak2 (Homo sapiens)?
# output 11 to 100 nM

# input Which measured IC50 belongs to COc1cc(-c2cncc(-c3cc(NC(=O)CC4CC4)cs3)n2)ccc1C(=O)Nc1cn(C)nc1OC , tested on Drak2 (Homo sapiens)?
# output 101 to 1000 nM

# input Which measured IC50 belongs to COc1cc(-c2cncc(-c3cc(NC(=O)CC4CCC4)cs3)n2)ccc1C(=O)N1CCN(C2CCN(C)CC2)CC1 , tested on Drak2 (Homo sapiens)?
# output 11 to 100 nM

# input Which measured IC50 belongs to COc1cc(-c2cncc(-c3cc(NC(=O)CC4CC(F)(F)C4)cs3)n2)ccc1C(=O)N(C)C1CC2(C1)CN(C)C2 (stereo not shown) , tested on Drak2 (Homo sapiens)?
# output 11 to 100 nM

====

Give IC50 for every item shown.

# input Which measured IC50 belongs to COc1cc(-c2cncc(-c3cc(NC(=O)CC45CC(C4)C5)cs3)n2)ccc1C(=O)N1CCOCC1 , tested on Drak2 (Homo sapiens)?
# output 11 to 100 nM

# input Which measured IC50 belongs to CCCCC(=O)Nc1csc(-c2cncc(-c3ccc(C(=O)N4CCN(C5CCN(C)CC5)CC4)c(OC)c3)n2)c1 , tested on Drak2 (Homo sapiens)?
# output 11 to 100 nM

# input Which measured IC50 belongs to CCCCCCCCCCC(=O)Nc1csc(-c2cncc(-c3ccc(C(=O)Nc4nnn[nH]4)c(OC)c3)n2)c1 , tested on Drak2 (Homo sapiens)?
# output > 10000 nM

# input Which measured IC50 belongs to COc1ccc(-c2cncc(-c3nc(NC(=O)OC(C)(C)C)cs3)n2)cc1OC , tested on Drak2 (Homo sapiens)?
# output > 10000 nM

# input Which measured IC50 belongs to CCCCC(=O)Nc1csc(-c2cncc(N3CCN(S(C)(=O)=O)CC3)n2)c1 , tested on Drak2 (Homo sapiens)?
# output 101 to 1000 nM

# input Which measured IC50 belongs to COc1cc(-c2cncc(-c3cc(NC(=O)CC4CCCC4)cs3)n2)ccc1C(=O)Nc1nnco1 , tested on Drak2 (Homo sapiens)?
# output 11 to 100 nM

# input Which measured IC50 belongs to CCCCC(=O)Nc1csc(-c2cncc(-c3ccc(C(=O)N(C4CC4)C4CCN(C5CC5)CC4)c(OC)c3)n2)c1 , tested on Drak2 (Homo sapiens)?
# output 11 to 100 nM

# input Which measured IC50 belongs to COc1cc(-c2cncc(-c3cc(NC(=O)CC4CC4)cs3)n2)ccc1C(=O)N(C)CCN(C)C , tested on Drak2 (Homo sapiens)?
# output < 10 nM
